target: F protein of human metapneumovirus strain JPS03-180 (type A1), on infectious virus (human metapneumovirus, strain JPS03-180 …); assay: cell-based or functional assay
measuredMetric: IC50, neutralizing activity (hMPV infection of LLC-MK2 cells) (µg/mL)
Response body: numeric value in µg/mL, unit text excluded.

Previously resolved entries follow.
1. EV046136 (antibody, human IgG1, kappa, V domains shown) VH: QVQLVQSGAEMKKPGASVKVSCKASGYTFTDYFIHWVRQAPGQGLEWMGWVNPNSGATNYAQKFQGRVTMTGDTSLSAAYVDLSRLSSDDSAVYYCARDRGLGISSTRNDAFDIWGQGTTVTVSS VL: DIQLTQSPSSLSASVGDRVTITCQPSQGIRNFLNWYQQKPGKAPNLLIYDASNLETGVASRFSGSGSGTHFTLTISSLQPEDIATYFCQQYHSLPLTFGGGTKVEIKR = 0.29
2. EV046135 (antibody, human IgG1, lambda, V domains shown) VH: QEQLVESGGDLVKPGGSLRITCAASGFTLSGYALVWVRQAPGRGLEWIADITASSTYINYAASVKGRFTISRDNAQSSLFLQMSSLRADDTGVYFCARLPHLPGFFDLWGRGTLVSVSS VL: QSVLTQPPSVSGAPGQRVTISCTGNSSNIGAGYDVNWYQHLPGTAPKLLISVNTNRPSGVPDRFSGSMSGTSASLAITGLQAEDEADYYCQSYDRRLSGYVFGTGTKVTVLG = 0.35
3. EV046124 (antibody, human IgG1, lambda, V domains shown) VH: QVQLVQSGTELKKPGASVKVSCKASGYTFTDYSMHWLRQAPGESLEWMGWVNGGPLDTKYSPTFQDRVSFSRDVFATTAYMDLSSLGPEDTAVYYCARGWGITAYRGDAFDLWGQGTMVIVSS VL: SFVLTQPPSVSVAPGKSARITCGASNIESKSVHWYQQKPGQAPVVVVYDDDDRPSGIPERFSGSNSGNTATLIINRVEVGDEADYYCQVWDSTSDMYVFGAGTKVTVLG = 0.07

Continue with the binder presented below.
Recorded IC50, neutralizing activity (hMPV infection of LLC-MK2 cells) (binder EV046150 (antibody, human IgG1, kappa, V domains shown) VH: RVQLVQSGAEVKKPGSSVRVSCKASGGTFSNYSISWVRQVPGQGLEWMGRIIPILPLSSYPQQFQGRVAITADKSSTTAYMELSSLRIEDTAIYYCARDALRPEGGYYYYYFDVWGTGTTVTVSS VL: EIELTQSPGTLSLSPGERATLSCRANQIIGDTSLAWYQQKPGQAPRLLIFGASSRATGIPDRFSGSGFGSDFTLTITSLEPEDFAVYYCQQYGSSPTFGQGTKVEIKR ): 0.049
